- Tested on: CYP1A1
- test: CLZD_CYP1A1: Change in expression of CYP1A1 (primary human hepatocytes)
- Type: cell-based
- protocol conditions: 24 hr
Readings of CLZD_CYP1A1_24 for the listed compounds
Reply briefly: the number, and no unit.

>>> observed("CCN(CC)C(=O)C(C)Oc1cccc2ccccc12 (centres unmarked) [row 219]")
4.557
>>> observed("C#CCOS(=O)OC1CCCCC1Oc1ccc(C(C)(C)C)cc1 (centres unmarked) [r259]")
4.821
>>> observed("CCC(CC)Nc1c([N+](=O)[O-])cc(C)c(C)c1[N+](=O)[O-] [r238]")
5.24
>>> observed("Cc1[nH]c(=O)n(C(C)(C)C)c(=O)c1Cl [r296]")
5.327
>>> observed("CCOc1cc(Oc2ccc(C(F)(F)F)cc2Cl)ccc1[N+](=O)[O-] [r233]")
5.52
>>> observed("Fc1ccc(Oc2ccnc3cc(Cl)cc(Cl)c23)cc1 [r277]")
5.128
>>> observed("COc1nc(NC(C)C)nc(NC(C)C)n1 [r255]")
5.078
>>> observed("Cc1cc(C)nc(Nc2ccccc2)n1 [r273]")
4.775
>>> observed("CC(C)Oc1cc(-n2nc(C(C)(C)C)oc2=O)c(Cl)cc1Cl [row 225]")
4.998
>>> observed("CCCC1COC(Cn2cncn2)(c2ccc(Cl)cc2Cl)O1 (centres unmarked) [r262]")
4.952

Query (compound): CCCCC(CC)CN1C(=O)C2C3C=CC(C3)C2C1=O (centres unmarked) [row 212] ; field requested: CLZD_CYP1A1_24
4.883
